Data credit: ChEMBL document CHEMBL1201862

Test system: HCC 2998
Test method notes: NCI tumour cell line growth inhibition, 48 h
Activity calls are given as the source filed them. Cut-off read from the data, not from the text of the source: active = GI50 up to about 1.1 µM and inactive = higher.
Quick reference for GI50 among some compounds

Example compounds with recorded GI50:
[[record]]
compound = "CC(C)(C)c1cc(Cc2ccc(S(C)(=O)=O)cc2)c(O)c(C(C)(C)C)c1"
recorded_result = "16.2 µM (inactive)"

[[record]]
compound = "N/C(=N/O)N/N=C\\c1cc(Cl)cc(Cl)c1O"
recorded_result = "2.31 µM (inactive)"

[[record]]
compound = "ClC[Si]12OCCN(CCO1)CCO2"
recorded_result = "> 100 µM (inactive)"


Look up GI50 for this compound: O=S(=O)(c1ccccc1)n1c2ccc(Br)cc2c2nc3ccccc3nc21
> 100 µM (inactive)

Entry CC(=O)CC12NC(=O)N(C)N=C1N(C)C(=O)N(C)C2=O (stereo unspecified) please
82.8 µM (inactive)

How about Cc1nc(Nc2ccc(Cl)c(Cl)c2)sc1C(=O)/C=C/c1ccc2c(c1)OCO2 ?
30.2 µM (inactive)

Ok, now CC(=O)N(C)c1ccc2ncccc2c1[N+](=O)[O-]
> 100 µM (inactive)

Same read-out for Cc1ccc2c(c1-c1ccccc1)C(=O)OC2 ?
> 100 µM (inactive)

Now this one: Cc1c(Cl)cccc1NC(=O)C(=O)C(C(=O)c1ccccc1-c1ccccc1)C1OC(=O)c2ccccc21 (stereo unspecified)
17.1 µM (inactive)

Query Cc1cn(CCCCC2=NCCCN2)c(=O)[nH]c1=O next
> 26.3 µM (inactive)

How about this compound: Cc1ccc(S(=O)(=O)NN=C2C(C)(C)CC2(C)C)cc1
> 100 µM (inactive)
